Experiment: qHTS assay to identify small molecule agonists of the TGF-beta/Smad signaling pathway - cell viability counter screen (AID 1346829); also: nearly all actives have a fitted effect of over 45% in size
Settings: SBE-bla HEK293T viability, CellTiter-Glo luminescence, 5 h; series mostly up to 76.8 µM
Inconclusive results are not listed. The source made the active and inactive calls. Calls follow the shape of the dose curve; as a rule, active = well fitted cell-killing curve with a large enough effect in the repeat runs; inconclusive = weak or mixed curves, or effect the other way; inactive = flat fitted curve, though single readings scatter.
# valid calls are active, inactive; nothing else

Consider the following illustrative entries.
- Compound: "CC(C)CC(C)(c1ccc(O)cc1)c1ccc(O)cc1"
  Label value: "inactive"
- Compound: "[Cl][Sn]([c]1ccccc1)([c]1ccccc1)[c]1ccccc1"
  Label value: "active"
- Compound: "CC(C)[C@H](C(=O)OC(C#N)c1cccc(Oc2ccccc2)c1)c1ccc(OC(F)F)cc1 (some centres undefined)"
  Label value: "inactive"
- Compound: "CCCOCC(=Nc1ccc(Cl)cc1C(F)(F)F)n1ccnc1"
  Label value: "inactive"

Recorded test outcome, item Clc1ccc(-c2ccccc2)cc1
inactive

Recorded test outcome, item c1ccc2c(c1)OCC(C1=NCCN1)O2 (centres undefined)
inactive

Record lookup: outcome of this test for Cc1cccc(OP(=O)(Oc2cccc(C)c2)Oc2cccc(C)c2)c1 ?
inactive

Returns: the outcome recorded for Nc1c(Oc2ccccc2)cc(O)c2c1C(=O)c1ccccc1C2=O in this assay.
inactive

# outcome recorded in this test, key = CCCCOP(=O)(CCCC)OCCCC
inactive

Short answer needed: outcome of this test for CCCN(CC)CC1COC2(CCC(C(C)(C)C)CC2)O1 (centres undefined) ?
inactive

###

Test: A CellTox Green Cytotoxicity Assay to monitor cytotoxicity in HepG2 cells - 32 hour (AID 1224883); also: nearly all actives have a fitted effect of over 50% in size; also: potency is read from the fitted curve at half-maximal effect
Settings: CellTox Green fluorescence; series mostly up to 76.8 µM
Records with an inconclusive call do not appear. The source made the active and inactive calls. Calls come from the whole dose curve; as a rule, active = well fitted activation curve with a large enough effect in the repeat runs; inconclusive = weak or mixed curves; inactive = flat fitted curve, though single readings scatter.
Measured parameter: Potency

Recorded Potency, per entry:
- Compound: "CN(C)c1ccc(N=Nc2ccccc2)cc1"
  Potency: "inactive"
- Compound: "COc1ccc(OC)c(CC(C)N)c1 (stereo not drawn)"
  Potency: "inactive"
- Compound: "O=c1[nH]c2ccccc2n1C1CCN(CCCC(c2ccc(F)cc2)c2ccc(F)cc2)CC1"
  Potency: "24.5 µM (active)"
- Compound: "Nc1ccc(Cc2ccc(N)c(Cl)c2)cc1Cl"
  Potency: "inactive"
- Compound: "CC(Cc1ccc(C(C)(C)C)cc1)CN1C[C@@H](C)O[C@@H](C)C1 (stereo partly drawn)"
  Potency: "49 µM (active)"
- Compound: "Nc1ccc([N+](=O)[O-])cc1Cl"
  Potency: "inactive"
- Compound: "CN(C)[C@@H]1C(=O)C(C(N)=O)=C(O)[C@@]2(O)C(=O)C3=C(O)c4c(O)ccc(Cl)c4[C@@](C)(O)[C@H]3C[C@@H]12"
  Potency: "inactive"
- Compound: "C=COCCCl"
  Potency: "inactive"
- Compound: "Oc1ccc(C(=C(Cl)Cl)c2ccc(O)cc2)cc1"
  Potency: "inactive"
- Compound: "O=c1c(C2CC(c3ccc(-c4ccc(Br)cc4)cc3)Cc3ccccc32)c(O)sc2ccccc12 (stereo not drawn)"
  Potency: "inactive"

Here is the next item to consider.
For record O=C(CCl)Nc1ccccc1 the listed Potency is inactive

###

Assay: qHTS assay to identify small molecule agonists of the hypoxia (HIF-1) signaling pathway - cell viability counter screen (AID 1224844); also: nearly all actives have a fitted effect of over 50% in size
Settings: HRE-bla ME-180 viability, CellTiter-Glo luminescence, 17 h; series mostly up to 76.8 µM
Inconclusive results are not listed. The source made the active and inactive calls. Calls follow the shape of the full dose curve.
Lab note: assign the record to one of Y for active, N for inactive

Take a look at these entries with their results.
- Compound: "O=c1c(C2CC(c3ccc(-c4ccc(Br)cc4)cc3)Cc3ccccc32)c(O)sc2ccccc12 (stereo not given)"
  Label value: "Y"
- Compound: "N#Cc1c(-c2ccc(Cl)cc2)[nH]c(C(F)(F)F)c1Br"
  Label value: "N"
- Compound: "CCCCCCCCCCCCCCCC[N+](C)(C)C"
  Label value: "N"
- Compound: "ClC1=C(Cl)C2(Cl)C3C(Cl)C(Cl)CC3C1(Cl)C2(Cl)Cl (stereo not given)"
  Label value: "Y"

Now examine the next entry.
Field: outcome | Entry: Fc1cccc(Cl)c1CCl
N

###

Test: qHTS assay to identify small molecule agonists of the peroxisome proliferator-activated receptor delta (PPARd) signaling pathway - cell viability counter screen (AID 743211); also: nearly all actives have a fitted effect of over 55% in size
Settings: PPARd-bla HEK293H viability, CellTiter-Glo luminescence, 17 h; series mostly up to 62.6 µM
Records with an inconclusive call do not appear. The source made the active and inactive calls. The call rests on the fitted dose curve; in most records, active means well fitted cell-killing curve with a large enough effect in the repeat runs; inconclusive means weak or mixed curves; inactive means no such curve, though single readings can be large or run the other way.
Write down the outcome that applies. Available outcomes: active, inactive

Solved entries (count: 6):
- Compound: "CN(C)S(=O)(=O)N(SC(F)(Cl)Cl)c1ccccc1"
  Label value: "active"
- Compound: "Cc1cc(C(C)(C)c2cc(C)c(O)c(C)c2)cc(C)c1O"
  Label value: "active"
- Compound: "CCOC(=O)CC(=O)CCl"
  Label value: "inactive"
- Compound: "O=C(CCCN1CCC2(CC1)C(=O)NCN2c1ccccc1)c1ccc(F)cc1"
  Label value: "inactive"
- Compound: "C[C@]12CC[C@@H]3c4ccc(OC(=O)N(CCCl)CCCl)cc4CC[C@H]3[C@@H]1CC[C@@H]2O"
  Label value: "inactive"
- Compound: "N#CCCSCCC#N"
  Label value: "inactive"

Name the outcome recorded for O=C/C(Cl)=C(/Cl)C(=O)O in the assay.
inactive

Hi team, can someone confirm the assay call for CN(C)C1CSSSC1 ?
inactive

Dear colleague, could you share the recorded outcome for Cc1cc(C)c(C2=C(OC(=O)CC(C)(C)C)C3(CCCC3)OC2=O)c(C)c1 when you have a moment?
inactive

###

Biological target: Estrogen receptor beta (Homo sapiens) (UniProt Q92731)
Sequence (Q92731 whole entry, looked up): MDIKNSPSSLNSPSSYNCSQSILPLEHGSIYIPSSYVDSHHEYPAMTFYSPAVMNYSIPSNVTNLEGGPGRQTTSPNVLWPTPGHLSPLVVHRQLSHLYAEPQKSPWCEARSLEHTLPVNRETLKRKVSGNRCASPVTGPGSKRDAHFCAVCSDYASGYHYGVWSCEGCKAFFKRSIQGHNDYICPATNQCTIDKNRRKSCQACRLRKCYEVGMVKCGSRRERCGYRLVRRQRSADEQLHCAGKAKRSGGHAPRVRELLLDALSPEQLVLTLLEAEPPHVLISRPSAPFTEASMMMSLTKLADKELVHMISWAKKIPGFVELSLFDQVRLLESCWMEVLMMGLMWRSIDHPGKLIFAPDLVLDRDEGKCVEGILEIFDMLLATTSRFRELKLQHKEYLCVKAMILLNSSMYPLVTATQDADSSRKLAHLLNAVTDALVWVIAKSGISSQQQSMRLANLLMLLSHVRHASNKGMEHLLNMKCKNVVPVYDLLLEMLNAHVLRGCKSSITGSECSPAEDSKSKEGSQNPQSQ
Test: qHTS assay to identify small molecule antagonists of the estrogen receptor beta (ER-beta) signaling pathway (AID 1259378)
Settings: ER-beta-UAS-bla HEK293T, beta-lactamase FRET ratio, 16 h; series mostly up to 92.4 µM
Description: National Center for Advancing Translational Sciences [NCATS] NIH Chemical Genomics Center [NCGC] U.S. Environmental Protection Agency [EPA] National Institutes of Environmental Health Sciences [NIEHS] National Toxicology Program [NTP] U.S. Food and Drug Administration [FDA] Estrogen receptor (ER), a nuclear hormone receptor, plays an important role in development, metabolic homeostasis and reproduction. […]
Inconclusive results are not listed. The source made the active and inactive calls. The call rests on the fitted dose curve; in most records, active means well fitted inhibition curve with a large enough effect in the signal ratio in the repeat runs (not every such curve was filed as active); inconclusive means weak or mixed curves, or effect the other way; inactive means no such curve, though single readings can be large or run the other way; the % refers to the signal ratio.
Your reply should match one of these outcome classes. active, inactive

Example entries begin here.
- Molecule: "N#Cc1ccccc1N"
  Label value: "inactive"
- Molecule: "COc1ccc(OC)c(CC(C)N)c1 (stereo not drawn)"
  Label value: "inactive"
- Molecule: "CC1CCC(C(C)C)C(OC(=O)c2ccccc2N)C1 (stereo not drawn)"
  Label value: "active"
- Molecule: "Cc1ccc(C(=O)Cl)cc1"
  Label value: "inactive"
- Molecule: "N#Cc1ccccc1Cl"
  Label value: "inactive"
- Molecule: "CCCCOP(=O)(CCCC)OCCCC"
  Label value: "inactive"

# fetch the recorded call for CC(C)[C@H](C(=O)O[C@H](C#N)c1cccc(Oc2ccccc2)c1)c1ccc(Cl)cc1 here
inactive

Assay result, entry Clc1ccc(-c2ccccc2)cc1 — outcome?
inactive

###

Assay: qHTS assay to identify small molecule antagonists of the estrogen related receptor (ERR) signaling pathway from Tox21 library - cell viability counter screen (AID 1224834); also: nearly all actives have a fitted effect of over 30% in size
Conditions: ERR reporter cells viability, CellTiter-Fluor, 17.5 h; series mostly up to 92.4 µM
Results filed as inconclusive are left out. Calls of active or inactive are those of the source. Calls come from the whole dose curve; as a rule, active = well fitted cell-killing curve with a large enough effect in the repeat runs; inconclusive = weak or mixed curves; inactive = flat fitted curve, though single readings scatter.
Response enum: y for active, n for inactive

- Compound: "C1CCC2CCCCC2C1 (centres undefined)"
  Label value: "n"

Hi team, can someone confirm the assay call for Cn1cc(C2=C(c3cn(C4CCN(Cc5ccccn5)CC4)c4ccccc34)C(=O)NC2=O)c2ccccc21 ?
y

Each compound tested received a call. Report the one for CCC(C)c1cc(C(C)(C)C)cc(-n2nc3ccccc3n2)c1O (centres undefined) .
n

Which outcome was assigned to CC(C)CBr in this test?
n

###

Assay: A CellTox Green Cytotoxicity Assay to monitor cytotoxicity in HepG2 cells - 16 hour (AID 1224876); also: nearly all actives have a fitted effect of over 45% in size; also: potency is read from the fitted curve at half-maximal effect
Conditions: CellTox Green fluorescence; series mostly up to 76.8 µM
Records with an inconclusive call do not appear. The source made the active and inactive calls. The call rests on the fitted dose curve; in most records, active means well fitted activation curve with a large enough effect in the repeat runs; inconclusive means weak or mixed curves; inactive means flat fitted curve, though single readings scatter.
Measured parameter: Potency

- Compound: "[Hg+2].[I-].[I-]"
  Result value: "12.3 µM (active)"
- Compound: "CCCSP(=O)(OCC)SCCC"
  Result value: "inactive"
- Compound: "O=S(=O)(c1ccc(Cl)cc1)c1ccc(Cl)cc1"
  Result value: "inactive"
- Compound: "N#Cc1ccc(O)cc1"
  Result value: "inactive"
- Compound: "O=[N+]([O-])c1cc(C(F)(F)F)c(Cl)c([N+](=O)[O-])c1Cl"
  Result value: "49 µM (active)"
- Compound: "CCCCCCCCCCCCBr"
  Result value: "inactive"

Given item OC(Cc1ccccc1Cl)(Cn1cncn1)C1(Cl)CC1 (centres undefined) , the value recorded as its Potency is inactive

Input COc1ccc(N)cc1N . Output Potency: inactive

Per the records, this compound ( CC(=O)Nc1ccc2c(c1)Cc1ccccc1-2 ) has Potency equal to inactive

# Potency (compound: BrCBr ) is inactive

O=c1oc2ccccc2c(O)c1Cc1c(O)c2ccccc2oc1=O yielded Potency of inactive
